Biological target: muscarinic M1 receptor (Homo sapiens)
Construct: expressed in transfected cells
Sequence (P11229 1-460): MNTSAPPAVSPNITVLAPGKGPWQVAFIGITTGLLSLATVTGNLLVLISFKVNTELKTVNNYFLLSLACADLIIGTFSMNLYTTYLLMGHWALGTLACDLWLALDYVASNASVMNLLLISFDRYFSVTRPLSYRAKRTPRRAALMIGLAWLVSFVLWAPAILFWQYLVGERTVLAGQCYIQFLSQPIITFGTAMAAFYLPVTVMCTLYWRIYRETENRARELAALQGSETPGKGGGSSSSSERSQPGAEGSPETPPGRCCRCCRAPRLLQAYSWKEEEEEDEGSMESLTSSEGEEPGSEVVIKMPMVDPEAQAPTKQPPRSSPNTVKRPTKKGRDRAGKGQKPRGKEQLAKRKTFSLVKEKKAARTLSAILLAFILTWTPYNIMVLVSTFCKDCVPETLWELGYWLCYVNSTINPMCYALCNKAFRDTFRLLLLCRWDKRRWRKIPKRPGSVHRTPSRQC
Assay: R-SAT functional screen, M1
Assay type: cell-based
Conditions: R-SAT; read-out: M1 eff (efficacy)
Measured Emax accompanies every entry in the list below.
Answer in %, number only, no unit symbol.

Request body: readout Emax, system muscarinic M1 receptor (Homo sapiens), query C=CCN1c2ccc(Cl)cc2N=C(N2CCNCC2)c2ccccc21 . Return the value.
12
